Data provenance: patent US20240425607A1

test: SEC-HPLC % monomer; assay type: physicochemical; conditions: optimized antibodies
Recorded measurements of SEC-HPLC, % monomer, one per entry
propertyMeasured: SEC-HPLC, % monomer (%)

ADI-71742: anti-IL18-BP antibody, sequences in FIG. 2Q (antibody, V domains shown) VH: QLQLQESSPGLVKPSETLSLTCTVSGGSISSPDYPWGWIRQPPGKGLEWIGSIFYSGNTYYNPSLKSRVTISVDTSKNQFSLKLSSVTAADTAVYYCARGPHRQVFDYWGQGTLVTVSS VL: DIQMTQSPSSVSASVGDRVTITCRASQGISSWLAWYQQKPGKAPKLLIYAASSLQSGVPSRFSGSGSGTDFTLTISSLQPEDFATYYCQQGWSFPYTFGGGTKVEIK    91.3
ADI-71736: anti-IL18-BP antibody, sequences in FIG. 2L; 66716 lineage (antibody, V domains shown) VH: QLQLQESGPGLVKPSETLSLTCTVSGGSISSSEYGWGWIRQPPGKGLEWIGSIVNSGSTYYNPSLKSRVTISVDTSKNQFSLKLSSVTAADTAVYYCARGPHRQVFDYWGQGTLVTVSS VL: DIQMTQSPSSVSASVGDRVTITCRASQGISSWLAWYQQKPGKAPKHLIYAASSLQSGVPSRFSGSGSGTDFTLTISSLQPEDFATYYCQQGFSFPYTFGGGTKVEIK    79.2
